All values here come from patent US20050209278A1.

Biological target: MMP-2 (Homo sapiens)
Construct: made in house; host or cells: MMP-2-transfected p2AHT2 cells
Sequence (P08253 110-660): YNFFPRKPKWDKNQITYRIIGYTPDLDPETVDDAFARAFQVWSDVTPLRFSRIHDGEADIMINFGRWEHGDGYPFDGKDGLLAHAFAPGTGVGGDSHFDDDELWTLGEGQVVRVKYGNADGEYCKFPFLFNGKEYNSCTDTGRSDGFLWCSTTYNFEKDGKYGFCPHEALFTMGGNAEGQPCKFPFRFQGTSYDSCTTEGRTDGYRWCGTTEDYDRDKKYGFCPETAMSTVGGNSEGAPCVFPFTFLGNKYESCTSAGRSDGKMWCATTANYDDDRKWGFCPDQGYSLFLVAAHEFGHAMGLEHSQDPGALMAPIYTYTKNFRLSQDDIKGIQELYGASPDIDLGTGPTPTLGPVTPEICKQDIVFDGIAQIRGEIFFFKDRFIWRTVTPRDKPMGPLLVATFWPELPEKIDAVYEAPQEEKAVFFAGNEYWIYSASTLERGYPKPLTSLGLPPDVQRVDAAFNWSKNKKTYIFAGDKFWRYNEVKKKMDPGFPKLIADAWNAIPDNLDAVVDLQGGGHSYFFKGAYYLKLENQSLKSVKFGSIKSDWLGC
Assay: MMP-2 inhibition (in vitro Ki)
Format: biochemical
Conditions: Table 9; read-out: MMP-2 Ki (IC-50)
readout.type: Ki (nM)

CN(Cc1ccco1)C(=O)CCCCC1CCN(S(=O)(=O)C2(C(=O)NO)CCOCC2)CC1 [Example A99]    50.8

(I) O=C(NO)C1(S(=O)(=O)N2CCC(c3ccc(CCc4ccsc4)cn3)CC2)CCOCC1 [Example A95]
(II) O=C(NO)C1(S(=O)(=O)N2CCC(c3ccc(CCC4CCCC4)cn3)CC2)CCOCC1 [Example A106]
Hi there! Just curious which has the higher Ki between I and II . Lab log: write the label of the selected item as the result.
I
